test system: Ba/F3 cells with uncommon EGFR mutations; test: Cell proliferation assay, panel of Ba/F3 lines; assay type: cell-based; conditions: Mus musculus, BaF3, 72 h, read-out: average IC50 values (range over cell lines)
pIC50: −log10 of the molar value.
Experimental Endpoint: pIC50

>>> experimental_result("C=CC(=O)Nc1cc(Nc2nccc(-c3cn(C4CC4)c4ccccc34)n2)c(OC)cc1N(C)CCN(C)C")
"6.34 to 7.97"

----------
test system: A431 cells with EGFR WT; assay: Cell proliferation assay; type: cell-based; details: Homo sapiens, A-431, 72 h
Experimental Endpoint: IC50 (nM)

>>> experimental_result("C=CC(=O)Nc1cc(Nc2nccc(-c3cn(C4CC4)c4ccccc34)n2)c(OC)cc1N(C)CCN(C)C")
597

Attribution: paper PMC10326255
